# test.system: M1 muscarinic receptors expressed in CHO cells (Homo sapiens)
# Construct: expressed in transfected cells; host or cells: CHO (CHO-hM1, stably transfected)
# protocol.description: [3H]-arachidonic acid release screen with and without ACh and modulator
# Type: cell-based
# measurement.setup: 10 μM modulator, 0.1 μM ACh; Table 4, N = 4-5
Parameter: Ratio of response of ACh with modulator to response of ACh alone, 0.1 μM ACh. Scope: all listed entries.
recorded.endpoint: Ratio of response of ACh with modulator to response of ACh alone, 0.1 μM ACh

>>> df
                         compound_structure  measured_result
0  COc1c(Br)cc(Cn2cc(C(=O)O)c(=O)c3ccccc32)cc1Br             2.77
1  COc1c(I)cc(CN2C(=O)C(=O)c3cc(OC(F)(F)F)ccc32)cc1I             2.47
2  COc1c(Br)cc(CN2C(=O)C(=O)c3cc(OC(F)(F)F)ccc32)cc1Br             3.04
3  COc1c(I)cc(Cn2cc(C(=O)O)c(=O)c3ccccc32)cc1I             2.46

---

# test.system: M1 muscarinic receptors expressed in CHO cells (Homo sapiens, UniProt P11229)
# Construct: expressed in transfected cells; host or cells: CHO (CHO-hM1, stably transfected)
# Sequence (P11229 whole entry): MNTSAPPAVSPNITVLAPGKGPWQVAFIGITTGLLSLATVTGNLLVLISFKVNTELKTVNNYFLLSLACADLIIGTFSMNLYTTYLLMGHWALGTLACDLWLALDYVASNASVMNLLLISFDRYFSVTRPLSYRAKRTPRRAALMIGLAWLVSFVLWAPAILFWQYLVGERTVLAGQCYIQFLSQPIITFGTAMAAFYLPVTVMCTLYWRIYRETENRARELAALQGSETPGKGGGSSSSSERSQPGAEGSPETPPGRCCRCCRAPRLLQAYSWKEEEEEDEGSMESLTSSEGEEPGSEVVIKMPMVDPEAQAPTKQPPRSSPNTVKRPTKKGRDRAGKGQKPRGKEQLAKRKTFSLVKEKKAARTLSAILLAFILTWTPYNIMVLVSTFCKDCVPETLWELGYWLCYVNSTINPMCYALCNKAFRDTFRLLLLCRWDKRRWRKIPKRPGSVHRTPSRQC
# protocol.description: [3H]-arachidonic acid release screen with and without ACh and modulator
# Type: cell-based
# measurement.setup: 10 μM modulator, 100 μM ACh; Table 4, N = 4-5
Parameter: Ratio of response of ACh with modulator to response of ACh alone, 100 μM ACh. Scope: all listed entries.
recorded.endpoint: Ratio of response of ACh with modulator to response of ACh alone, 100 μM ACh

In [3]: df
Out[3]:
                                   molecule                               test_system  measured_result
0  COc1c(Br)cc(Cn2cc(C(=O)O)c(=O)c3ccccc32)cc1Br [GK-1-50]  M1 muscarinic receptors expressed in CHO cells (Homo sapiens, UniProt P11229)      1.11 ± 0.12
1  COc1c(I)cc(Cn2cc(C(=O)O)c(=O)c3ccccc32)cc1I [GK-1-47]  M1 muscarinic receptors expressed in CHO cells (Homo sapiens, UniProt P11229)      1.33 ± 0.04
2  COc1c(Br)cc(CN2C(=O)C(=O)c3cc(OC(F)(F)F)ccc32)cc1Br [GK-1-48]  M1 muscarinic receptors expressed in CHO cells (Homo sapiens, UniProt P11229)      1.66 ± 0.07
3  COc1c(I)cc(CN2C(=O)C(=O)c3cc(OC(F)(F)F)ccc32)cc1I [GK-1-44]  M1 muscarinic receptors expressed in CHO cells (Homo sapiens, UniProt P11229)      1.67 ± 0.11

---

# test.system: M1 muscarinic receptors expressed in CHO cells (Homo sapiens, UniProt P11229)
# Construct: expressed in transfected cells; host or cells: CHO (CHO-hM1, stably transfected)
# protocol.description: [3H]-arachidonic acid release screen with and without ACh and modulator
# Type: cell-based
# measurement.setup: 10 μM modulator, 100 μM ACh; Table 1
# Procedure: CHO cells expressing human M1 muscarinic receptors were cultured at 37° C. in a 5% CO2 atmosphere in F12 medium supplemented with 5% fetal bovine serum, 100 units/mL penicillin, and 100 μg/mL streptomycin. Measurement of [^3H]AA release was performed. […] [^3H]AA release was measured in Eagle's basal medium with 20 mM HEPES and 2 mg/ml fatty acid-free bovine serum albumin (EM-BSA). […]
Structures can show the parent of a compound that is named as a salt.
Ratio of response of ACh with modulator to response of ACh alone, 100 μM ACh vs 1: at or above is TRUE, below is FALSE.

                                    compound  class_label
 0  O=C1C(=O)N(Cc2ccc(Br)cc2)c2ccccc21 [VU0119498, reference compound]         TRUE
 1        CCCCc1oc2ccccc2c1C(=O)c1ccc(OC)cc1         TRUE
 2       COc1ccc(CN2C(=O)C(=O)c3ccccc32)cc1F         TRUE
 3    COc1c(I)cc(CN2C(=O)C(=O)c3ccccc32)cc1I         TRUE
 4  CCCCc1oc2ccccc2c1C(=O)c1cc(I)c(OC)c(I)c1         TRUE
 5  CCN(CC)CCOc1ccc(CN2C(=O)C(=O)c3ccccc32)cc1         TRUE
 6       COc1ccc(CN2C(=O)C(=O)c3ccccc32)cc1I         TRUE
 7      COc1ccc(CN2C(=O)C(=O)c3ccccc32)cc1Cl         TRUE
 8  CCCCc1oc2ccccc2c1C(=O)c1ccc(OCCN(CC)CC)cc1         TRUE
 9  CCN(CC)CCOc1c(Br)cc(CN2C(=O)C(=O)c3ccccc32)cc1Br [Compound 8l, hydrochloride]        FALSE
10      COc1ccc(CN2C(=O)C(=O)c3ccccc32)cc1Br        FALSE
11  COc1c(Cl)cc(CN2C(=O)C(=O)c3ccccc32)cc1Cl         TRUE
